experimental-details: Mass spectrometry of 2-PMPA concentration in post-mortem brains of EAE mice
Type: in vivo
experimental-parameters: mouse, cerebellum, ip; Mean±SEM; 100 mg/kg daily i.p.; sacrifice 50 days after immunization; read-out: 2-PMPA in the cerebellum
quantity-name: concentration at 50 days after EAE immunization (ng/g)
Give just the number in ng/g; leave the unit off.

Inquiry: Query: concentration at 50 days after EAE immunization; subject: O=C(O)CCC(CP(=O)(O)O)C(=O)O (stereo not shown)
Reply text: 832
